I'd be grateful if you could share measured Binding Signal with 300 sec Association for these entries.
tested on: T1, recombinant human GREM1 (hGREM1-His; C-terminal 10His tagged, R&D, #5190-GR) (human, UniProt O60565 25-184)
T1 construct: range 25-184; also called recombinant human GREM1 with a C-terminal decahistidine tag
T1 sequence: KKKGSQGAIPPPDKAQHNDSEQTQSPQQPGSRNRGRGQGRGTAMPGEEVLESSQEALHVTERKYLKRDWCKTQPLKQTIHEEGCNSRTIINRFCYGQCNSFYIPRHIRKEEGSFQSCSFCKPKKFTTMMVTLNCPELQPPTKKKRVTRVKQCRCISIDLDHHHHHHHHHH
assay notes: BLI Octet, mAb captured, 100 nM GREM1 + 5 uM heparin;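 also: octet Red96 biolayer interferometry at 25 °C, antibodies captured on anti-human IgG Fc biosensors, pH 7.4 HEPES buffer with 0.1 mg/mL BSA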
Kindly answer with a numeric value in nm, unit omitted.

Recorded Binding Signal with 300 sec Association for H4H6232P (antibody, human IgG4, V domains shown, H4H prefix = human IgG4 Fc) VH: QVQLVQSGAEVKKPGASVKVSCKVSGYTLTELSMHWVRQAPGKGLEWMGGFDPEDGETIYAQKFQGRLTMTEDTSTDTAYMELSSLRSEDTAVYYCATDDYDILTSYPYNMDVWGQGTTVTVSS VL: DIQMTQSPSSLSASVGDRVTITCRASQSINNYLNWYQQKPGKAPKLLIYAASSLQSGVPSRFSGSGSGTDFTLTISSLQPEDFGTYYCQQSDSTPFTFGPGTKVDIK , please?
0.46

I am curious: what Binding Signal with 300 sec Association value has been reported for H4H6233P (antibody, human IgG4, V domains shown, H4H prefix = human IgG4 Fc) VH: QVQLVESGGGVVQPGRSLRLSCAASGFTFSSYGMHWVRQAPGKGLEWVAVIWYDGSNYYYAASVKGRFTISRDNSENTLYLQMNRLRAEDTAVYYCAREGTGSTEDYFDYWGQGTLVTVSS VL: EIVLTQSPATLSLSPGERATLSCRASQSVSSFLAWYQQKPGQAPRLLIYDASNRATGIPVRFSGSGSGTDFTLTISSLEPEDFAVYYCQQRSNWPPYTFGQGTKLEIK ?
0.41

I'd like to know its Binding Signal with 300 sec Association. The binder in question is H4H2926N (antibody, human IgG4, V domains shown, H4H prefix = human IgG4 Fc) VH: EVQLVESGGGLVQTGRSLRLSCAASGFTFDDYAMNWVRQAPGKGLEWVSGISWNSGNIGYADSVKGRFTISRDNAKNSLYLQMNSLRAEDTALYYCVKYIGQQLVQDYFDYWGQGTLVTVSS VL: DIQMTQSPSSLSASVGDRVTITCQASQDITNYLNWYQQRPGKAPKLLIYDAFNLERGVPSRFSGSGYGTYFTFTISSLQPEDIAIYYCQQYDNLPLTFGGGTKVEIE
0.42

The measurements presented in this section are drawn from patent US20200157194A1.
